system: RAW-Dual; assay: NF-kB SEAP reporter activity, fold change vs agonist alone; cytotoxicity flag (confluency mask): not cytotoxic; higher = enhanced NF-kB activity; settings: agonist: ODN 1826 (TLR9) 0.5 ug/mL
In all, about 2,900 compounds were measured (“NF-kB SEAP reporter activity, fold change vs agonist alone”: median about 0.99, highest 2% from about 2.6 on). Shown is part of a subset that was picked to be rich in the highest values.
Give measured NF-kB SEAP reporter activity for each item. Keep answers brief.
Please reply with the number alone, leaving off any unit.

So, CC12CCC(=O)C=C1C=CC1C2CCC2(C)C1CCC21CCC(=O)O1 (stereo unspecified) (library stock concentration (final ~1000-fold dilution): 10 mM) ? Its NF-kB SEAP reporter activity was 1.05

So, CCCS(=O)c1ccc2nc(NC(=O)OC)[nH]c2c1 (stereo unspecified) (library stock concentration (final ~1000-fold dilution): 10 mM) ? Its NF-kB SEAP reporter activity was 0.948

So, C=CC(=O)N1CCC(C2CCNc3c(C(N)=O)c(-c4ccc(Oc5ccccc5)cc4)nn32)CC1 (stereo unspecified) (library stock concentration (final ~1000-fold dilution): 10 mM) ? Its NF-kB SEAP reporter activity was 0.413

So, CC(C(=O)O)c1ccc(C(=O)c2cccs2)cc1 (stereo unspecified) (library stock concentration (final ~1000-fold dilution): 10 mM) ? Its NF-kB SEAP reporter activity was 0.999

So, COc1cccc(CCc2ccccc2OCC(CN(C)C)OC(=O)CCC(=O)O)c1.Cl (stereo unspecified) (library stock concentration (final ~1000-fold dilution): 10 mM) ? Its NF-kB SEAP reporter activity was 0.733

So, COc1cc(-c2cc(-c3ccc(Cl)cc3)nc(=O)[nH]2)ccc1O (library stock concentration (final ~1000-fold dilution): 10 mM) ? Its NF-kB SEAP reporter activity was 0.991

---

test system: RAW-Dual; assay: NF-kB SEAP reporter activity, fold change vs agonist alone; cytotoxicity flag (confluency mask): not cytotoxic; higher = enhanced NF-kB activity; settings: agonist: Pam2CSK4 (TLR2/6) 0.1 ug/mL
Whole data set: some 2,900 compounds, median “NF-kB SEAP reporter activity, fold change vs agonist alone” near 0.99, cut for the highest 2% near 2.6. The sample as a whole holds a higher share of the highest values than the screen did.
Outcome label depends on NF-kB SEAP reporter activity relative to 1: at/above gives YES, below gives NO.

Q. Does NF-kB SEAP reporter activity meet or surpass 1 for Cc1cc(N2CC(C)NC(C)C2)ncc1-c1ccc(-c2nc3c(ccn3C)c(=O)[nH]2)cc1 (stereo not given) (library stock concentration (final ~1000-fold dilution): 10 mM) ?
A. YES

Q. Does NF-kB SEAP reporter activity meet or surpass 1 for Oc1cc(CNC(=S)/C=C/c2cc(O)c(O)c(Br)c2)cc(O)c1O (library stock concentration (final ~1000-fold dilution): 10 mM) ?
A. YES

Q. Does NF-kB SEAP reporter activity meet or surpass 1 for N#CCC1(n2cc(-c3ncnc4[nH]ccc34)cn2)CN(C2CCN(C(=O)c3ccnc(C(F)(F)F)c3F)CC2)C1 (library stock concentration (final ~1000-fold dilution): 10 mM) ?
A. YES

Q. Does NF-kB SEAP reporter activity meet or surpass 1 for CC(=O)OC(CC=C(C)C)C1=CC(=O)c2c(O)ccc(O)c2C1=O (stereo not given) (library stock concentration (final ~1000-fold dilution): 2 mM) ?
A. NO

Q. Does NF-kB SEAP reporter activity meet or surpass 1 for COc1ccc(Cn2c3ncnc4c(ncn4Cc4ccc(OC)cc4)c-3nc2=O)cc1 (library stock concentration (final ~1000-fold dilution): 10 mM) ?
A. NO
